Test system: southern crabgrass
EXPERIMENT NOTES: Foliage treatment test for upland field (Test Example 3): southern crabgrass
Type: in vivo
APPLIED CONDITIONS: dose 5 g ai/a; foliage treatment at 1.0-2.0 leaf stage of southern crabgrass; examined after 3 weeks
Some compounds, each annotated with its measured Herbicidal Effect southern crabgrass.

[
  {
    "COMPOUND": "CCSCC(=Cc1cccc(C(F)(F)F)c1)c1nc2cc(C(F)(F)F)ccc2o1 [Compound 84]",
    "SUBJECT OF TEST": "southern crabgrass",
    "VALUE REPORTED": "4 (80%-less than 100%)"
  }
]

Challenge: Herbicidal Effect southern crabgrass of COCC(=Cc1cccc(C(F)(F)F)c1)c1nc2cc(C(C)(C)C)ccc2o1 [Compound 151] on southern crabgrass?
Response given: 5 (100%)

Challenge: Give the reported Herbicidal Effect southern crabgrass for COCC(=Cc1cccc(C(F)(F)F)c1)c1nc2cc(C(F)(F)F)ccc2o1 [Compound 52] (system: southern crabgrass).
Response given: 5 (100%)

Challenge: Give recorded Herbicidal Effect southern crabgrass with southern crabgrass for the following compound: COCC(=Cc1ccc(Cl)c(C(F)(F)F)c1)c1nc2cc(Cl)ccc2o1 [Compound 9]
Response given: 5 (100%)

Challenge: Give Herbicidal Effect southern crabgrass (southern crabgrass) of the following compound: COCC(=Cc1cccc(C(F)(F)F)c1)c1nc2cc(OC(F)(F)F)ccc2o1 [Compound 46]
Response given: 5 (100%)

Challenge: Given the entry CSCC(=Cc1cccc(C(F)(F)F)c1)c1nc2cc(C(F)(F)F)ccc2o1 [Compound 82] , what Herbicidal Effect southern crabgrass was observed with southern crabgrass?
Response given: 4 (80%-less than 100%)

Hey, just so you know, these numbers are from patent US20080058213A1.
